Target: T1, human MCH receptor (membranes from a stable CHO or HEK-293 cell line) (human, UniProt Q99705 1-353)
T1 construct: whole, on cells; also called cloned human MCH receptor (CHO clone)
T1 sequence (Q99705 whole entry): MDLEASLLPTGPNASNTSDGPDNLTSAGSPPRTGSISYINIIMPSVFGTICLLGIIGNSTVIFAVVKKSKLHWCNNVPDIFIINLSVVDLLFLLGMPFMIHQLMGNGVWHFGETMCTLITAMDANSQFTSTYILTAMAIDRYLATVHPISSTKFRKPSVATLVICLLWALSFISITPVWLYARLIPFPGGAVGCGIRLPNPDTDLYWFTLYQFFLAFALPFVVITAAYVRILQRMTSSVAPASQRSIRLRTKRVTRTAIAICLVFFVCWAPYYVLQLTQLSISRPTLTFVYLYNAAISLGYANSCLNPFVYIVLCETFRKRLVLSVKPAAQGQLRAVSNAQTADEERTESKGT
Assay: competition vs [125I]-human MCH (Phe13,Tyr19); human MCH receptor cell membranes (Example 3)
Bridges are numbered along the chain shown (N, C = ends). Where no end group is shown, it is not given here.
Let's look at some binders and their measured pIC50.
Please note pIC50 is a logarithmic value: minus log10 of concentration in mol/L. Answer with that number alone.

Example cases with answers are listed next.
{"Binder": "H-CMLGRVYRPC-NH2 (disulfide 1-10, ID; NO; 7 peptide; MCH position numbering) [MCH analog SEQ. ID. NO. 37 (position 6: H)]", "pIC50": 7.92}
{"Binder": "XCMLGRVYRPC (Ac-D-Ser at position 6; C-terminal amide, Cys-Cys disulfide as in SEQ. ID. NO. 7, ID; NO; 7 peptide; MCH position numbering) [MCH analog SEQ. ID. NO. 45 (position 6: Ac-D-Ser)]", "pIC50": 8.64}
{"Binder": "SCMLGRVYRPC (Ac-Ser at position 6 (N-terminal acetyl); C-terminal amide, Cys-Cys disulfide as in SEQ. ID. NO. 7, ID; NO; 7 peptide; MCH position numbering) [MCH analog SEQ. ID. NO. 35 (position 6: Ac-Ser)]", "pIC50": 8.35}
{"Binder": "PCMLGRVYRPC (Ac-Pro at position 6 (N-terminal acetyl); C-terminal amide, Cys-Cys disulfide as in SEQ. ID. NO. 7, ID; NO; 7 peptide; MCH position numbering) [MCH analog SEQ. ID. NO. 33 (position 6: Ac-Pro)]", "pIC50": 8.47}
{"Binder": "NCMLGRVYRPC (Ac-Asn at position 6 (N-terminal acetyl); C-terminal amide, Cys-Cys disulfide as in SEQ. ID. NO. 7, ID; NO; 7 peptide; MCH position numbering) [MCH analog SEQ. ID. NO. 34 (position 6: Ac-Asn)]", "pIC50": 8.59}

## Input // query pIC50 value for entry Ac-CMLGRVYRPC-NH2 (disulfide 1-10; SMILES CSCC[C@@H]1NC(=O)[C@@H](NC(C)=O)CSSC[C@@H](C(N)=O)NC(=O)[C@@H]2CCCN2C(=O)[C@H](CCCNC(=N)N)NC(=O)[C@H](Cc2ccc(O)cc2)NC(=O)[C@H](C(C)C)NC(=O)[C@H](CCCNC(=N)N)NC(=O)CNC(=O)[C@H](CC(C)C)NC1=O, ID; NO; 7 peptide; MCH position numbering) [MCH analog SEQ. ID. NO. 38 (position 6: Ac)]
## Output 8.80

## Input Now the same for XCMLGRVYRPC (Ac-D-Nle at position 6; C-terminal amide, Cys-Cys disulfide as in SEQ. ID. NO. 7, ID; NO; 7 peptide; MCH position numbering) [MCH analog SEQ. ID. NO. 42 (position 6: Ac-D-Nle)]
## Output 8.92

## Input Field entry: XCMLGRVYRPC (Ac-D-Arg at position 6; C-terminal amide, Cys-Cys disulfide as in SEQ. ID. NO. 7, ID; NO; 7 peptide; MCH position numbering; 15 (D-Arg^6)) [MCH analog SEQ. ID. NO. 41 (position 6: Ac-D-Arg)]
## Output 9.34

## Input For ECMLGRVYRPC (Ac-Glu at position 6 (N-terminal acetyl); C-terminal amide, Cys-Cys disulfide as in SEQ. ID. NO. 7, ID; NO; 7 peptide; MCH position numbering) [MCH analog SEQ. ID. NO. 36 (position 6: Ac-Glu)] then?
## Output 7.72

## Input Same thing, different binder: Ac-RCMLGRVYRPC-NH2 (disulfide 2-11 (inferred), Corresponds to MCH positions 6-16; also called ID; NO; 7 MCH analog) [truncated MCH analog SEQ. ID. NO. 7: Ac-Arg-Cys-Met-Leu-Gly-Arg-Val-Tyr-Arg-Pro-Cys-amide]
## Output 8.85

## Input Try RCMLGRVYRPC-NH2 (disulfide 2-11 (inferred), ID; NO; 7 peptide; MCH position numbering) [MCH analog SEQ. ID. NO. 39 (position 6: Arg)] next.
## Output 9.89

## Input Likewise for Ac-ACMLGRVYRPC-NH2 (disulfide 2-11; SMILES CSCC[C@@H]1NC(=O)[C@@H](NC(=O)[C@H](C)NC(C)=O)CSSC[C@@H](C(N)=O)NC(=O)[C@@H]2CCCN2C(=O)[C@H](CCCNC(=N)N)NC(=O)[C@H](Cc2ccc(O)cc2)NC(=O)[C@H](C(C)C)NC(=O)[C@H](CCCNC(=N)N)NC(=O)CNC(=O)[C@H](CC(C)C)NC1=O, ID; NO; 7 peptide; MCH position numbering) [MCH analog SEQ. ID. NO. 31 (position 6: Ac-Ala)] ?
## Output 7.57
